Please provide measured relative viability for the entries that follow.
- System: NCI-H1975
- procedure summary: relative viability (nuclei count vs DMSO), 5 days (fraction); higher = more cells survive
- experimental setup: first compound 0.006325 µM
Write no unit; give the number alone.

Respond only with relative viability recorded for CCNC(=O)c1noc(-c2cc(C(C)C)c(O)cc2O)c1-c1ccc(CN2CCOCC2)cc1 [Luminespib] + C[C@]1(O)C[C@@H](c2nc(-c3ccc4ccc(-c5ccccc5)nc4c3)c3c(N)nccn32)C1 [Linsitinib] (partner 1 µM)
0.882

Answer with the recorded relative viability of CCNC(=O)c1noc(-c2cc(C(C)C)c(O)cc2O)c1-c1ccc(CN2CCOCC2)cc1 [Luminespib] + NC(=O)Nc1cc(-c2cccc(F)c2)sc1C(=O)N[C@H]1CCCNC1 [AZD7762] (partner 0.2 µM) only.
0.735

Specify relative viability for CCNC(=O)c1noc(-c2cc(C(C)C)c(O)cc2O)c1-c1ccc(CN2CCOCC2)cc1 [Luminespib] + O=C(CCCCCCC(=O)Nc1ccccc1)NO [Vorinostat] (partner 1 µM) and stop.
0.632

Given CCNC(=O)c1noc(-c2cc(C(C)C)c(O)cc2O)c1-c1ccc(CN2CCOCC2)cc1 [Luminespib] + COc1cc2c(Oc3ccc(NC(=O)C4(C(=O)Nc5ccc(F)cc5)CC4)cc3F)ccnc2cc1OCCCN1CCOCC1 [Foretinib] (partner 0.25 µM) , respond with its relative viability.
0.97

Supply measured relative viability of CCNC(=O)c1noc(-c2cc(C(C)C)c(O)cc2O)c1-c1ccc(CN2CCOCC2)cc1 [Luminespib] + Cc1nc(NC(=O)N2CCC[C@H]2C(N)=O)sc1-c1ccnc(C(C)(C)C(F)(F)F)c1 [Alpelisib] (partner 2 µM) in your reply.
0.512

====

- System: NCI-H1734
- procedure summary: relative viability (nuclei count vs DMSO), 5 days (fraction); higher = more cells survive
- experimental setup: first compound 0.253 µM
property: relative viability

Answer with the recorded relative viability of Nc1cccc2c1CN(C1CCC(=O)NC1=O)C2=O (stereo not given) [Lenalidomide] + O=C(c1cc(Cc2n[nH]c(=O)c3ccccc23)ccc1F)N1CCN(C(=O)C2CC2)CC1 [Olaparib] (partner 8 µM) only.
0.305

Could you please provide reported relative viability for Nc1cccc2c1CN(C1CCC(=O)NC1=O)C2=O (stereo not given) [Lenalidomide] + Cc1cc(Nc2cc(N3CCN(C)CC3)nc(Sc3ccc(NC(=O)C4CC4)cc3)n2)n[nH]1 [Tozasertib] (partner 0.1 µM) ? Thanks!
0.312

Give a short answer stating reported relative viability for Nc1cccc2c1CN(C1CCC(=O)NC1=O)C2=O (stereo not given) [Lenalidomide] + CC(=O)c1c(C)c2cnc(Nc3ccc(N4CCNCC4)cn3)nc2n(C2CCCC2)c1=O [Palbociclib] (partner 0.5 µM) .
0.348

State, in one line, measured relative viability of Nc1cccc2c1CN(C1CCC(=O)NC1=O)C2=O (stereo not given) [Lenalidomide] + CC(C)C[C@H](NC(=O)[C@H](Cc1ccccc1)NC(=O)c1cnccn1)B(O)O [Bortezomib] (partner 0.002 µM)
0.896

Give reported relative viability value for Nc1cccc2c1CN(C1CCC(=O)NC1=O)C2=O (stereo not given) [Lenalidomide] + CC1(C)CCC(c2ccc(Cl)cc2)=C(CN2CCN(c3ccc(C(=O)NS(=O)(=O)c4ccc(N[C@H](CCN5CCOCC5)CSc5ccccc5)c(S(=O)(=O)C(F)(F)F)c4)cc3)CC2)C1 [Navitoclax] (partner 0.5 µM)
0.802

Where do the numbers come from? From the supplement of paper PMC10307832.
